// data source = patent EP0005422A2

- experimental details: Solubility and pH of aqueous solution
- Type: physicochemical
- conditions: water; read-out: Solubilité dans l'eau
observable: solubility
Give the number first and the unit second.

What solubility value was documented for this molecule, CCCC(CCC)CCCC(=O)O [Y=OMg1/2, n=2, n-Propyl-5 octanoate de magnésium] ?
1000 µg/mL

====

- experimental details: Acute toxicity (toxicité aiguë)
- Assay type: in vivo
- conditions: mouse, in vivo, po, 1000 mg/kg, mice, 1000 mg/kg oral; read-out: mortalité
observable: mortality (%)
Write the number in % without appending the unit.

What mortality value was documented for this compound, CCCC(CCC)CC(N)=O [Y=NH2, n=0, n-propyl-3 hexanamide] ?
0
